Origin of the recorded values: patent US20090291942A1

Target: human GPR4 (Homo sapiens)
Construct: expressed in transfected cells
Experiment: Cell-based assay for human GPR4 activity (pH-induced cAMP formation, HTRF)
Conditions: HeLa cells stably expressing human GPR4, pH-induced cAMP formation
pIC50: −log10 of the molar value. Counter-ions that a name gives are not always drawn.
assay.readout: pIC50

Use these answered entries as a reference point.
| compound | pIC50 |
| --- | --- |
| CCCC(C)N1CCN(C/C=C/c2ccc(Cn3c(CC)nc4c(C)cc(C)nc43)cc2)CC1 (centres unmarked) [Example 54, dihydrochloride] | 6.78 |
| Cc1cc(C)c2nc(C)n(Cc3ccc(/C=C/CN4CCC(N5CCCCC5)CC4)cc3)c2n1 | 7.03 |
| CCc1nc2c(C)cc(C)nc2n1Cc1ccc(CCCN2CCN(C(CC)CC)CC2)cc1 | 7.30 |
| CCc1nc2c(C)cc(C)nc2n1Cc1ccc(NC(=O)CCCCN2CCCC2)cc1 | 6.44 |

[I] CCc1nc2c(C)cc(C)nc2n1Cc1ccc(/C=C(\F)CN2CCN(C(C)C)CC2)cc1 [Example 94, dihydrochloride]
[II] CCc1nc2c(C)cc(C)nc2n1Cc1ccc(/C=C/CN2CCN(C3CCCCC3)CC2)cc1 [Example 57, dihydrochloride]
[III] CCc1nc2c(C)cc(C)nc2n1Cc1ccc(CCCN2CCN(C(C)C)CC2)cc1 [Example 8, dihydrochloride]
[IV] CCc1nc2c(C)cc(C)nc2n1Cc1ccc(CCCN2CCN(C(C)(C)C)CC2)cc1
Order the items by recorded pIC50; the first position goes to the largest value. Write the labels out in the order the request specifies.
I, IV, II, III

###

Target: human GPR4 (Homo sapiens, UniProt P46093)
Sequence (P46093 whole entry): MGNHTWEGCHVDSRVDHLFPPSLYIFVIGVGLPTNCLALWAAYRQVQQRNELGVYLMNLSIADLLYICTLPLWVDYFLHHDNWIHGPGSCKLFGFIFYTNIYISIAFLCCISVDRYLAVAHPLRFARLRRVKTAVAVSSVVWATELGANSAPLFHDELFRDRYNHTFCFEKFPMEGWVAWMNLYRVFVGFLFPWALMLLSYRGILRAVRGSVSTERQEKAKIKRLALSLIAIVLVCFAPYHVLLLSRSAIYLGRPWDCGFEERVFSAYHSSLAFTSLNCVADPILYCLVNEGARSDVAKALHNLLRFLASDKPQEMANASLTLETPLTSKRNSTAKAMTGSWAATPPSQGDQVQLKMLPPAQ
Assay: Cell-based assay for human GPR4 activity (pH-induced cAMP formation, HTRF)
Settings: HeLa cells stably expressing human GPR4, pH-induced cAMP formation
pIC50: −log10 of the molar value. Where a name gives a salt, the structure may show the parent alone.
assay.readout: pIC50

Use these answered entries as a reference point.
| compound | assay.target | recorded.measurement |
| --- | --- | --- |
| CCc1nc2c(C)cc(C)nc2n1Cc1ccc(/C=C/CN2C[C@H]3C[C@@H]2CN3CC(C)C)cc1 [Example 75, dihydrochloride] | human GPR4 (Homo sapiens, UniProt P46093) | 6.84 |
| CCc1nc2c(C)cc(C)nc2n1Cc1ccc(/C=C/CN2CCC(N3CCOCC3)CC2)cc1 [Example 34, dihydrochloride] | human GPR4 (Homo sapiens, UniProt P46093) | 6.74 |
| CCc1nc2c(C)cc(C)nc2n1Cc1ccc(/C=C/CN2CCC(O)(CN3CCOCC3)CC2)cc1 | human GPR4 (Homo sapiens, UniProt P46093) | 6.55 |
| CCc1nc2c(C)cc(C)nc2n1Cc1ccc(/C=C/CN2CCN(C(CC)CC)CC2)cc1 [Example 53, dihydrochloride] | human GPR4 (Homo sapiens, UniProt P46093) | 6.71 |
| CCc1nc2c(C)cc(C)nc2n1Cc1ccc(/C=C/CN2CCNCC2)cc1 | human GPR4 (Homo sapiens, UniProt P46093) | 6.79 |
| CCc1nc2c(C)cc(C)nc2n1Cc1ccc(/C=C/CN2CCC(N(CC)CC)CC2)cc1 [Example 31, dihydrochloride] | human GPR4 (Homo sapiens, UniProt P46093) | 6.84 |
| CCc1nc2c(C)cc(C)nc2n1Cc1ccc(/C=C/CN2CCC(O)CC2)cc1 | human GPR4 (Homo sapiens, UniProt P46093) | 6.32 |
| CCc1nc2c(C)cc(C)nc2n1Cc1ccc(/C=C/CN2CCN(C(C)(C)C)CC2)cc1 | human GPR4 (Homo sapiens, UniProt P46093) | 6.79 |

[I] CCc1nc2c(C)cc(C)nc2n1Cc1ccc(/C=C/CN2C[C@H]3C[C@@H]2CN3CC2CC2)cc1 [Example 76, trihydrochloride]
[II] CCc1nc2c(C)cc(C)nc2n1Cc1ccc(/C=C/CN2CCN(CC(C)C)CC2)cc1 [Example 50, dihydrochloride]
Recorded pIC50 values differ for I and II ; which one is higher? Please reply using the label of the selected record.
I

###

Target: human GPR4 (Homo sapiens, UniProt P46093)
Assay: Cell-based assay for human GPR4 activity (pH-induced cAMP formation, HTRF)
Conditions: HeLa cells stably expressing human GPR4, pH-induced cAMP formation
Where a name gives a salt, the structure may show the parent alone.
assay.readout: IC50 (nM)

Use these answered entries as a reference point.
| compound | assay.readout | unit.symbol | recorded.measurement |
| --- | --- | --- | --- |
| Cc1cc(C)c2nc(C(F)(F)F)n(Cc3ccc(/C=C/CN4CCN(C(C)(C)C)CC4)cc3)c2n1 | IC50 | nM | 30 |
| CCc1nc2c(C)cc(C)nc2n1Cc1ccc(/C=C/CCN2CCC(N3CCOCC3)CC2)cc1 [Example 108, dihydrochloride] | IC50 | nM | 447 |
| CCc1nc2c(C)cc(C)nc2n1Cc1ccc(CCCN2C[C@H]3C[C@@H]2CN3CC)cc1 | IC50 | nM | 877 |
| Cc1cc(C)c2nc(C(F)(F)F)n(Cc3ccc(/C=C/CN4CCC(N5CCOCC5)CC4)cc3)c2n1 [Example 89, dihydrochloride] | IC50 | nM | 182 |

[a] CCc1nc2c(C)cc(C)nc2n1Cc1ccc(/C=C/CCN2CCN(C(C)C)CC2)cc1 [Example 106, dihydrochloride]
[b] CCc1nc2c(C)cc(C)nc2n1Cc1ccc(CCCN2CCN(C)CC2)cc1 [Example 6, dihydrochloride]
[c] CCc1nc2c(C)cc(C)nc2n1Cc1ccc(/C=C/CN2CCN3CCCC3C2C)cc1 (centres unmarked) [Example 73, dihydrochloride]
[d] CCCC(C)N1CCN(CCCc2ccc(Cn3c(CC)nc4c(C)cc(C)nc43)cc2)CC1 (centres unmarked)
[e] CCc1nc2c(C)cc(C)nc2n1Cc1ccc(/C=C(\F)CN2CCN(C(C)(C)C)CC2)cc1 [Example 95, dihydrochloride]
Order the items by recorded IC50; the first position goes to the largest value. Write the labels out in the order the request specifies.
c, b, d, a, e

###

Biological target: UniProtKB P46093
Assay: Cell-based assay for human GPR4 activity (pH-induced cAMP formation, HTRF)
Conditions: HeLa cells stably expressing human GPR4, pH-induced cAMP formation
Where a name gives a salt, the structure may show the parent alone.
assay.readout: IC50 (nM)

| molecule | assay.readout | unit.symbol | recorded.measurement |
| --- | --- | --- | --- |
| CCc1nc2c(C)cc(C)nc2n1Cc1ccc(/C=C/CN2CCN(C(C)C)C(C)C2)cc1 (stereo not shown) | IC50 | nM | 530 |

[1] Cc1cc(C)c2nc(C(F)(F)F)n(Cc3ccc(/C=C/CN4CCN(C(C)C)CC4)cc3)c2n1 [Example 91, dihydrochloride]
[2] CCc1nc2c(C)cc(C)nc2n1Cc1ccc(/C=C/CN2CCN(CCN(CC)CC)CC2)cc1 [Example 60, hydrochloride]
I'm curious, which of these has a smaller IC50 number: 1 or 2 ? Please reply using the label of the selected record.
1
(1: 140 nM, 2: 995 nM)

###

Target: human GPR4 (Homo sapiens, UniProt P46093)
Experiment: Cell-based assay for human GPR4 activity (pH-induced cAMP formation, HTRF)
Conditions: HeLa cells stably expressing human GPR4, pH-induced cAMP formation
pIC50: −log10 of the molar value. Structures can show the parent of a compound that is named as a salt.
assay.readout: pIC50

[1] CCCCc1nc2c(C)cc(C)nc2n1Cc1ccc(/C=C/CN2CCN(C(C)C)CC2)cc1 [Example 85, dihydrochloride]
[2] Cc1cc(C)c2nc(C(C)C)n(Cc3ccc(/C=C/CN4CCC(N5CCCCC5)CC4)cc3)c2n1 [Example 83, dihydrochloride]
[3] CCc1nc2c(C)cc(C)nc2n1Cc1ccc(/C=C/CN2CCN(C(C)CC)CC2)cc1 (stereo not drawn)
[4] CCc1nc2c(C)cc(C)nc2n1Cc1ccc(/C=C/CN2CCN(CCN(C(C)C)C(C)C)CC2)cc1 [Example 61, trihydrochloride]
[5] CCc1nc2c(C)cc(C)nc2n1Cc1ccc(CCCN2CCN(C3CCCC3)CC2)cc1
Highest to lowest pIC50: rank the entries shown above. Write the labels out in the order the request specifies.
3, 5, 2, 4, 1
(3: 7.00, 5: 6.73, 2: 6.53, 4: 6.30, 1: 6.08)

###

Target: human GPR4 (Homo sapiens, UniProt P46093)
Test: Cell-based assay for human GPR4 activity (pH-induced cAMP formation, HTRF)
Conditions: HeLa cells stably expressing human GPR4, pH-induced cAMP formation
Structures can show the parent of a compound that is named as a salt.
assay.readout: IC50 (nM)

Use these answered entries as a reference point.
| molecule | assay.target | IC50 [nM] |
| --- | --- | --- |
| CCc1nc2c(C)cc(C)nc2n1Cc1ccc(/C=C/CN2CCN(CCN(C)C)CC2)cc1 [Example 58, trihydrochloride] | human GPR4 (Homo sapiens, UniProt P46093) | 255 |
| CCc1nc2c(C)cc(C)nc2n1Cc1ccc(CCCCN2CCC(N3CCCCC3)CC2)cc1 [Example 112] | human GPR4 (Homo sapiens, UniProt P46093) | 59 |
| CCCCN1CCN(CCCc2ccc(Cn3c(CC)nc4c(C)cc(C)nc43)cc2)CC1 [Example 10] | human GPR4 (Homo sapiens, UniProt P46093) | 123 |
| CCc1nc2c(C)cc(C)nc2n1Cc1ccc(/C=C/C(=O)N2CCC(N3CCOCC3)CC2)cc1 [Example 98] | human GPR4 (Homo sapiens, UniProt P46093) | 328 |
| CCc1nc2c(C)cc(C)nc2n1Cc1ccc(/C=C/CN2CCN(CC(=O)N(C)C)CC2)cc1 [Example 65] | human GPR4 (Homo sapiens, UniProt P46093) | 647 |

[I] COC(=O)C1CCN(C/C=C/c2ccc(Cn3c(C(F)(F)F)nc4c(C)cc(C)nc43)cc2)CC1 [Example 90, hydrochloride]
[II] CCc1nc2c(C)cc(C)nc2n1Cc1ccc(/C=C/CCN2CCN(C(C)(C)C)CC2)cc1 [Example 104, dihydrochloride]
Recorded IC50 values differ for I and II ; which one is higher? Please reply using the label of the selected record.
I
